Form field: IC50 (one value per entry).
test system: MT2; experiment: Compound tested for the inhibition of HIV-induced cytopathogenicity in MT-2 cells; assay type: functional, cell-based; details: Homo sapiens
READOUT: IC50

molecule="COc1ccc(S(=O)(=O)N(CC(C)C)CC(O)C2CCCCCCCCOc3c(O)cccc3C(=O)N2)cc1 (stereo unspecified)" readout=IC50 observed_measurement="0.3 µM"
molecule="C=CCCCCC(NC(=O)c1cccc(O)c1OCCC=C)C(O)CN(CC(C)C)S(=O)(=O)c1ccc(OC)cc1 (stereo unspecified)" readout=IC50 observed_measurement="> 1 µM"
molecule="COc1ccc(S(=O)(=O)N(CC(C)C)CC(O)C2CCCCCCCCCOc3c(O)cccc3C(=O)N2)cc1 (stereo unspecified)" readout=IC50 observed_measurement="0.56 µM"
molecule=CC(C)(C)NC(=O)[C@@H]1C[C@@H]2CCCC[C@@H]2CN1C[C@@H](O)[C@H](Cc1ccccc1)NC(=O)[C@H](CC(N)=O)NC(=O)c1ccc2ccccc2n1 readout=IC50 observed_measurement="0.012 µM"
molecule="CC(C)CN(CC(O)C1CCCCCCCCOc2c(O)cccc2C(=O)N1)S(=O)(=O)c1ccc2c(c1)OCO2 (stereo unspecified)" readout=IC50 observed_measurement="> 1 µM"
molecule=CC(C)CN(C[C@@H](O)[C@H](Cc1ccccc1)NC(=O)O[C@H]1CCOC1)S(=O)(=O)c1ccc(N)cc1 readout=IC50 observed_measurement="0.028 µM"

---

target: Human immunodeficiency virus type 1 protease (Human immunodeficiency virus 1, UniProt Q72874)
pKi: −log10 of the molar value.
Form field: pKi (one value per entry).
READOUT: pKi

compound="C=CCCCCC(NC(=O)c1cccc(O)c1OCC=C)C(O)CN(CC(C)C)S(=O)(=O)c1ccc(OC)cc1 (stereo not given)" readout=pKi observed_measurement=7.92
compound="C=CCCCCC(NC(=O)c1cccc(O)c1OCCC=C)C(O)CN(CC(C)C)S(=O)(=O)c1ccc(OC)cc1 (stereo not given)" readout=pKi observed_measurement=8.70
compound="CC(C)CN(CC(O)C1CCCCCCCCOc2c(O)cccc2C(=O)N1)S(=O)(=O)c1ccc2c(c1)OCO2 (stereo not given)" readout=pKi observed_measurement=8.52
compound="C=CCCCCC(NC(=O)c1cccc(O)c1OCCC=C)C(O)CN(CC(C)C)S(=O)(=O)c1ccc2c(c1)OCO2 (stereo not given)" readout=pKi observed_measurement=7.70
compound="CCCCCCCC(NC(=O)c1cccc(O)c1O)C(O)CN(CC(C)C)S(=O)(=O)c1ccc(OC)cc1 (stereo not given)" readout=pKi observed_measurement=6.57
compound="C=CCCCCC(NC(=O)c1cccc(O)c1OCCCC=C)C(O)CN(CC(C)C)S(=O)(=O)c1ccc(OC)cc1 (stereo not given)" readout=pKi observed_measurement=8.05
compound="COc1ccc(S(=O)(=O)N(CC(C)C)CC(O)C2CCCCCCCCOc3c(O)cccc3C(=O)N2)cc1 (stereo not given)" readout=pKi observed_measurement=9.15
compound="COc1ccc(S(=O)(=O)N(CC(C)C)CC(O)C2CCCC/C=C\\COc3c(O)cccc3C(=O)N2)cc1 (stereo not given)" readout=pKi observed_measurement=8.70
compound="COc1ccc(S(=O)(=O)N(CC(C)C)CC(O)C2CCCCCCCOc3c(O)cccc3C(=O)N2)cc1 (stereo not given)" readout=pKi observed_measurement=9.00
compound="COc1ccc(S(=O)(=O)N(CC(C)C)CC(O)C2CCCCCCCCCOc3c(O)cccc3C(=O)N2)cc1 (stereo not given)" readout=pKi observed_measurement=8.70
